Where these numbers come from: patent US20240327385A1

- system-under-test: human recombinant renin (Homo sapiens (Human))
- Sequence (P00797 67-406): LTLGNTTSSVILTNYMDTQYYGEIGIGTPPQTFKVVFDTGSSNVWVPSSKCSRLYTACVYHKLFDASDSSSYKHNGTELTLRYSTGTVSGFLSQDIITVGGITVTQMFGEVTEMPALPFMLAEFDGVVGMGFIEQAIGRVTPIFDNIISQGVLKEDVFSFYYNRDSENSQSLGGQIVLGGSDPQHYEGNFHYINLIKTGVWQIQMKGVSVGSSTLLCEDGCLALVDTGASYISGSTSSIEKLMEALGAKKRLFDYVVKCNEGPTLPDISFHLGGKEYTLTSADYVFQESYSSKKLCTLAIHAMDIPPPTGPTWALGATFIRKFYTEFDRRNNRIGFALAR
- assay-comment: human renin activity inhibition (SensoLyte 520 Renin Assay Kit Fluorimetric)
- Format: biochemical
- reported-conditions: 30 min preincubation at 37° C., fluorescence at 530 nm after 15 min at 37° C., read-out: IC50 (nM), inhibitory effect on human renin activity
We begin with a simple list: items and their reported IC50.

{"compound": "CO[C@H]1C[C@H](Nc2cc(C3CC3)cnc2C(=O)N(CC(C)C)[C@H]2CCCNC2)C1 [Compound 26]", "system-under-test": "human recombinant renin (Homo sapiens (Human))", "measurement-kind": "IC50", "result": "< 20 nM"}
{"compound": "CO[C@H]1C[C@H](Nc2cc(C3CC3)cnc2C(=O)N(CC2CC2)[C@@H]2CNC[C@H](c3nnc(C)o3)C2)C1 [Compound 41]", "system-under-test": "human recombinant renin (Homo sapiens (Human))", "measurement-kind": "IC50", "result": "< 10 nM"}
{"compound": "CO[C@H]1C[C@H](Nc2nc(C3CC3)ncc2C(=O)N(CC(C)C)[C@@H]2CNC[C@H](C(=O)N3CCOC[C@@H]3C)C2)C1 [Compound 46]", "system-under-test": "human recombinant renin (Homo sapiens (Human))", "measurement-kind": "IC50", "result": "< 250 nM"}
{"compound": "Cc1nnc(C2CNC[C@@H](N(CC(C)C)C(=O)c3ncc(C4CC4)cc3NC3COC3)C2)o1 (stereo in doubt) [Compound 37]", "system-under-test": "human recombinant renin (Homo sapiens (Human))", "measurement-kind": "IC50", "result": "< 20 nM"}
{"compound": "CC(C)CN(C(=O)c1ncc(C2CC2)cc1NC1COC1)[C@H]1CCCNC1 [Compound 36]", "system-under-test": "human recombinant renin (Homo sapiens (Human))", "measurement-kind": "IC50", "result": "< 50 nM"}
{"compound": "CC(C)CN(C(=O)c1ncc(C2CC2)cc1NC1COC1)[C@@H]1CNCC(c2nnc(C3CC3)o2)C1 (some centres unmarked) [Compound 32]", "system-under-test": "human recombinant renin (Homo sapiens (Human))", "measurement-kind": "IC50", "result": "< 10 nM"}
{"compound": "CC(C)CN(C(=O)c1ncc(C2CC2)cc1NC1COC1)[C@@H]1CNC[C@H](c2ncon2)C1 [Compound 42]", "system-under-test": "human recombinant renin (Homo sapiens (Human))", "measurement-kind": "IC50", "result": "< 30 nM"}

Now turn to the next compound.
Field IC50 (human recombinant renin (Homo sapiens (Human))), entry CC(C)CN(C(=O)c1ncc(C(F)(F)F)cc1NC1COC1)[C@@H]1CNC[C@H](C(=O)N2CCOCC2)C1 [Compound 43] : < 10 nM
